Consider the following compounds; for each one, report its IC50.
# Target Under Test: Histone deacetylase 4 (Homo sapiens, UniProt P56524)
# Sequence (P56524 whole entry): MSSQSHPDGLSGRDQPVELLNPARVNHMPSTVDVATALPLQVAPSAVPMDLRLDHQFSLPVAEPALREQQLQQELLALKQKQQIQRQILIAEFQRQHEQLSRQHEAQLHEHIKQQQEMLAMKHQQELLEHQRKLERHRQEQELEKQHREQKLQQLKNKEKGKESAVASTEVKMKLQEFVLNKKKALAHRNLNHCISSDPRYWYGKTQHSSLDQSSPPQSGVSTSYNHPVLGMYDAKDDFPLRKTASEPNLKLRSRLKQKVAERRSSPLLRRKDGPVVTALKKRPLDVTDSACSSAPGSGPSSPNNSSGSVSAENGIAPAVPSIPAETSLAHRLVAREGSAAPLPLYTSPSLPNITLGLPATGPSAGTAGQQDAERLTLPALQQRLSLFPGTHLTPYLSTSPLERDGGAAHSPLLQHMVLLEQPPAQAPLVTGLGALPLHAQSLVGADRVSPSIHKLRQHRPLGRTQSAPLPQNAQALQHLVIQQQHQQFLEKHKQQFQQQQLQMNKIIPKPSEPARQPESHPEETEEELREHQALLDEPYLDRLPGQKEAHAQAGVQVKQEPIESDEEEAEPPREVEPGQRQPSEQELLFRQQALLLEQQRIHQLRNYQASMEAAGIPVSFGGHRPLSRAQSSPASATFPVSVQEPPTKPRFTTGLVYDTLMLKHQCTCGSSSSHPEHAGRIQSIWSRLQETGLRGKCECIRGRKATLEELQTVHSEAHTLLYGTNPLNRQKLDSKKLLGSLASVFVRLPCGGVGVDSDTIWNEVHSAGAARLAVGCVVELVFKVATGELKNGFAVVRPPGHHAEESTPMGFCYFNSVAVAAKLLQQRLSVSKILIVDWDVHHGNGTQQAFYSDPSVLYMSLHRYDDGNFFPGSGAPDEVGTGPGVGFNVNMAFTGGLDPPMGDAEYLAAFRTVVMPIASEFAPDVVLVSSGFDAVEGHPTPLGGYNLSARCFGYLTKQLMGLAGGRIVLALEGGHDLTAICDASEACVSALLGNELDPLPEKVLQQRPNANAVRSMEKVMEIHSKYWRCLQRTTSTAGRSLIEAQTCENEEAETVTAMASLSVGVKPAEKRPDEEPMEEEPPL
Numbers only, in nM.

Worked examples, 2 compounds total:
Compound | Recorded Result
O=C(CCCCC[C@H](NC(=O)OCc1ccccc1)C(=O)Nc1cccc2cccnc12)NO | 11
O=C(NC(CCCCCSSCCCCC[C@H](NC(=O)OCc1ccccc1)C(=O)Nc1cccc2cccnc12)C(=O)Nc1cccc2cccnc12)OCc1ccccc1 (stereo partly drawn) [(Z-L-Am7(S-)-QA)2 (4)] | 3.4

// next item, IC50 requested
What value of IC50 has been reported for the following compound? O=C(N[C@@H](CCCCCSSCCO)C(=O)Nc1cccc2cccnc12)OCc1ccccc1
2

---

# Target Under Test: Histone deacetylase 6 (Mus musculus, UniProt Q9Z2V5)
# Sequence (Q9Z2V5 whole entry): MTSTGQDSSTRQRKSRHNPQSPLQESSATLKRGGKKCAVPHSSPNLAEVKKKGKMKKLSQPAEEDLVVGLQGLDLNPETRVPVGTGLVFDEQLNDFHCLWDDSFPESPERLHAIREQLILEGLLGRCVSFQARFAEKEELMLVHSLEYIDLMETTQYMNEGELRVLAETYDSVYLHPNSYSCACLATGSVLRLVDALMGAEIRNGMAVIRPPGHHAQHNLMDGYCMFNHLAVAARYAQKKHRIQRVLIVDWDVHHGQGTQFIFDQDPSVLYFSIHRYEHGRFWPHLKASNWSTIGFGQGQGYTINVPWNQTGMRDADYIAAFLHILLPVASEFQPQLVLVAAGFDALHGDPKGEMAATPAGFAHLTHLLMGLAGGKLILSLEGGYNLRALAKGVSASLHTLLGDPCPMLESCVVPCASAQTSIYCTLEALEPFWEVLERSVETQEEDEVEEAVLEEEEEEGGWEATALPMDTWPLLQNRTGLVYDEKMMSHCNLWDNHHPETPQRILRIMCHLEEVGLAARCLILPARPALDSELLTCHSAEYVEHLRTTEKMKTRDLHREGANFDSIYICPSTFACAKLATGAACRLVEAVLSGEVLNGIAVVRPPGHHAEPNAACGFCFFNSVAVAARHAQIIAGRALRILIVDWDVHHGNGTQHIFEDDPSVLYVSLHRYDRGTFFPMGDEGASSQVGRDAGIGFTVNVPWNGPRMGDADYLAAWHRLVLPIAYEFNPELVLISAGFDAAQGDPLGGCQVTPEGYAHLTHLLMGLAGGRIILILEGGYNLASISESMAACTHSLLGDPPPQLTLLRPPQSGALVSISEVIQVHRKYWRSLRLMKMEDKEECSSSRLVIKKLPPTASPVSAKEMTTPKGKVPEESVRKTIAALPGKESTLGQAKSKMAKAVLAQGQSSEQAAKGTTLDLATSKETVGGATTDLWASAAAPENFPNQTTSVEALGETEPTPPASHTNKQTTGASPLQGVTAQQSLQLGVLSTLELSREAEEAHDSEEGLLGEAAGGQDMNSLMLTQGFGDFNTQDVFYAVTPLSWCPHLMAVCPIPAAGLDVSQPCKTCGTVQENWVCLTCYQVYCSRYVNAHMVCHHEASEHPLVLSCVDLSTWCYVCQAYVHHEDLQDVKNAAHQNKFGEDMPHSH
Please provide measured IC50 for the entries that follow.
Give bare numbers, in µM.

Compound | IC50 [µM]
CC(=O)SCCCCC[C@H](NC(=O)OCc1ccccc1)C(=O)Nc1cccc2cccnc12 | 0.034

I would be grateful if you could share the reported IC50 for O=C(NC(CCCCCSSCCCCC[C@H](NC(=O)OCc1ccccc1)C(=O)Nc1cccc2cccnc12)C(=O)Nc1cccc2cccnc12)OCc1ccccc1 (stereo partly drawn) [(Z-L-Am7(S-)-QA)2 (4)] .
0.0075

Ref: BindingDB's records for doi:10.1016/j.bioorg.2015.02.009
